These data points were gathered from PubChem BioAssay.

test: probe aCHRDL2 binding to arrayed compounds – biochemical, biotinylated probe, 635/667 nm fluorescence, primary screen (AID 1100); conditions: small-molecule microarray, higher = more signal
Catalogue of compounds with associated composite z-score

Please review the entries below; each comes with its answer.
INSERT INTO measurements (compound, assay_readout, result) VALUES
  ('CN(C)CCCN1C(=O)[C@@]2(c3ccc([N+](=O)[O-])cc3)CC(=O)N(C3CCCCC3)[C@@H]2c2ccc(CO)cc21', 'composite z-score', 0.196),
  ('CN(C)CCCCCCNC(=O)[C@@H]1C[C@@H]2C(=O)NCC(=O)N2[C@@H]1c1cccc(OCCO)c1', 'composite z-score', -0.0688),
  ('Cc1ccc(S(=O)(=O)N2CC(C(=O)O)=CCC2c2ccccc2)cc1 (centres undefined)', 'composite z-score', 0.696);

Request: # get_value(readout='composite z-score', item= O=C1OCC=C[C@H]2OC34C=CCN(c5ccc(Cl)cc5)C(=O)[C@H]3N(CCCO)C(=O)[C@@H]4[C@@H]12 (some centres undefined) )
Result: 0.673

Request: Another compound to check: O=C1O[C@@H](c2ccccc2)[C@@H](c2ccccc2)N2[C@@H](c3ccccc3OCCO)[C@]3(C(=O)Nc4ccc(C#CC5(O)CCCCCC5)cc43)[C@@H](C(=O)NC[C@H](O)c3ccccc3)[C@H]12
Result: 0.204

Request: Another compound to check: COC(=O)[C@@]1(Cc2ccc(F)cc2)[C@H]2c3cc(C(=O)N(C)C)n(CCCNc4ccc(C(F)(F)F)cc4Cl)c3C[C@H]2CN1C(=O)c1ccccc1
Result: 1.38

Request: Another compound to check: COC(=O)[C@@]1(Cc2ccccc2)[C@H]2c3cc(C(=O)N(C)C)n(Cc4ccccc4)c3C[C@H]2CN1C(=O)c1ccccc1
Result: 0.816

Request: Another compound to check: COC(=O)c1c(CC[C@@H](CO)NC(=O)Nc2ncn[nH]2)oc(C(=O)Cc2ccccc2)c1C(=O)OC
Result: -0.0621

Request: Another compound to check: O=C(NCC(O)CO)[C@@]1(Cc2ccccc2)COC(c2ccc(OCCCO)cc2)=N1 (some centres undefined)
Result: 0.536

Request: Another compound to check: O=C1O[C@@H](c2ccccc2)[C@@H](c2ccccc2)N2[C@@H](c3ccc(O)cc3)[C@]3(C(=O)Nc4ccc(C#CCCO)cc43)[C@@H](C(=O)N3CCCCCCC3)[C@H]12
Result: 1.07

###

test: growth of efflux-deficient E. coli DRC39 – strain DRC39, OD650, 24 h, E. coli filamentation inducers, primary screen (AID 1178);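 also: growth measured as culture turbidity by optical density at 650 nm; test concentration not given here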; settings: E. coli DRC39 acrAB, higher = more signal, called active from +8 up or from −8 down
assay-readout: z-score
Give the figure only, with no unit attached.

INSERT INTO assay_data (compound, assay_readout, measured_number) VALUES
  ('Cc1ccc(S[C@]2(C(=O)NCCCN(C)C)CC(=O)N(C(C)C)[C@@H]2c2ccc(CO)cc2I)cc1', 'z-score', 0.847),
  ('CC(C)C(=C=CC[C@H](O)c1ccccc1OCCO)CCO', 'z-score', -0.235),
  ('CS(=O)(=O)CCOC(=O)C1=CC(c2ccc(CO)cc2)=CC(c2cccs2)N(Cc2cccc(OC(F)(F)F)c2)C=C1C(=O)OCCS(C)(=O)=O (stereo not given)', 'z-score', -2.93);

Request: # get_value(readout='z-score', item= COCC1=C([C@H](O)CCc2ccccc2)[C@H](CO)[C@@H]2C(=O)N(Cc3ccccc3)C(=O)[C@@H]2C1 )
Result: 1.09

Request: Another compound to check: CCOC(=O)C[C@H]1[C@H](OC(=O)c2cc3ccccc3oc2=O)[C@@H](NC(=O)c2ccc3ccccc3c2)c2cc(OCCCO)ccc2N1C(=O)c1ccccc1
Result: -0.464

###

assay: probe aXIP binding to arrayed compounds – biochemical, NeuroSMM set, 635/667 nm fluorescence, primary screen (AID 1119); details: small-molecule microarray, higher = more signal, called active from +8 up or from −8 down;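 also: probe is the protein aXip251-270 applied at 1 µg/mL to compound-printed slides; binding of probe to printed compounds measured as 667 nm fluorescence plus signal to noise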
Classification field: enter MET for composite Z-score values not below -0.09, NOT MET for values below it.

Solved entries:
INSERT INTO results (compound, discrete_label) VALUES
  ('Cc1ccccc1/C=C/C=O', 'NOT MET'),
  ('O=C1O[C@@H](c2ccccc2)[C@@H](c2ccccc2)N2[C@@H](c3ccc(O)cc3)[C@]3(C(=O)Nc4ccc(C#CCCO)cc43)[C@@H](C(=O)O)[C@H]12', 'MET');

Request: Given COCCOC(=O)N1C(=O)[C@@]2(c3cc(C#CC4=CCCCC4)ccc31)[C@H](C(=O)N1CCN(c3ncccn3)CC1)[C@H]1C(=O)O[C@H](c3ccccc3)[C@H](c3ccccc3)N1[C@@H]2c1ccc(OCCO)cc1 , state whether its composite Z-score is at least -0.09.
Result: NOT MET

Request: Another compound to check: C=CCC(OC(C)=O)[C@@H]1[C@@H](N(Cc2ccc(-c3cccc(C(F)(F)F)c3)o2)C(=O)Cc2ccc(OC)cc2)c2cc(OCCCO)ccc2N1C(=O)Cc1ccc(OC)cc1 (some centres not stated)
Result: NOT MET

Request: Another compound to check: CC(=O)NCCCC[C@@H]1NC(=O)[C@@H]2C[C@H](C(=O)NCc3ccc(F)cc3)[C@H](c3ccc(O)cc3)N2C1=O
Result: MET

Request: Another compound to check: COc1ccccc1CN1C(=O)c2ccccc2[C@](Cc2ccccc2I)(C(=O)NCc2ccccc2)[C@@H]1c1ccc(CO)cc1
Result: MET

Request: Another compound to check: Cc1ccc(S[C@]2(C(=O)NCC(F)(F)F)CC(=O)N(C3Cc4ccccc4C3)[C@@H]2c2ccc(CO)cc2I)cc1
Result: MET

###

test: Pseudomonas biofilm growth suppression – PAO1 strain, BacTiter-Glo luminescence, LB-PBS, primary screen (AID 1144); conditions: P. aeruginosa PAO1 biofilm, 12 h, higher = more signal
Classification field: enter t for z-score values not below -0.5, f for values below it.

Request: Given Cc1ccc(S[C@]2(C(=O)NCC(C)C)CC(=O)N(Cc3ccccc3)[C@@H]2c2ccc(CO)cc2)cc1 , state whether its z-score is at least -0.5.
Result: t

Request: Another compound to check: CC(C)NC(=O)[C@@H]1c2ccccc2C(=O)N(C2CCCCC2)[C@H]1c1ccc(CO)cc1
Result: t

Request: Another compound to check: C=C(C(=O)CC[C@H](OC(=O)c1cccnc1)c1ccccc1OCCO)C(C)C
Result: t

Request: Another compound to check: COCCCNC(=O)[C@]1(Cc2ccccc2N=[N+]=[N-])N=C(c2ccc(OCCCO)cc2)O[C@@H]1c1ccccc1CN=[N+]=[N-]
Result: t

Request: Another compound to check: C=CC[C@@]1(C(=O)NCCN2CCOCC2)N=C(c2ccc(OCCCO)cc2)O[C@@H]1c1ccccc1CN=[N+]=[N-]
Result: f

Request: Another compound to check: COc1ccc(C(=O)Nc2cccc(CN3C(=O)[C@@]4(O[C@@H](CCn5cc([C@H](O)c6ccccc6)nn5)[C@H]([Si](C)(C)c5ccc(OC)cc5)[C@H]4C)c4ccccc43)c2)cc1
Result: t

Request: Another compound to check: COCCOC(=O)N1C(=O)[C@@]2(c3cc(C#CCC(C(=O)OC)C(=O)OC)ccc31)[C@H](c1ccc(OCCO)cc1)N1[C@H](c3ccccc3)[C@H](c3ccccc3)OC(=O)[C@H]1[C@@H]2C(=O)NC[C@H](O)c1ccccc1
Result: f

###

Catalogue of compounds with associated composite Z-score
test: probe aXIP binding to arrayed compounds – biochemical, NeuroSMM set, 635/667 nm fluorescence, primary screen (AID 1119); conditions: small-molecule microarray, higher = more signal, called active from +8 up or from −8 down;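 also: probe is the protein aXip251-270 applied at 1 µg/mL to compound-printed slides; binding of probe to printed compounds measured as 667 nm fluorescence plus signal to noise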
Give the figure only, with no unit attached.

Please review the entries below; each comes with its answer.
INSERT INTO results (compound, measured_number) VALUES
  ('CO[C@H]1O[C@H](CO)[C@@H](OC(=O)Nc2cccc(F)c2)[C@H](OC(=O)Nc2ccccc2-c2ccccc2)[C@@H]1OC(=O)Nc1ccccc1-c1ccccc1', -0.116),
  ('CCOC(=O)C[C@H]1[C@H](OC(=O)c2ccccc2-c2ccccc2)[C@@H](NC(=O)c2ccc(-c3ccccc3)cc2)c2cc(OCCCO)ccc2N1C(=O)c1ccccc1', 0.148),
  ('O=C1OCCC=C[C@H]2OC34C=CCN(CCN5CCOCC5)C(=O)[C@H]3N(CCO)C(=O)[C@@H]4C12 (some centres undefined)', -0.7),
  ('CC(C)[C@H]1COC(=O)N1C(=O)[C@H]1[C@@H](c2ccccc2)N(c2ccccc2)O[C@@H]1C', 1.77),
  ('C=C(C)[C@@H]1CC=C(C(O)C2C=CC3C(=O)N(Cc4ccccc4)C(=O)C3N2n2cnnc2)CC1 (some centres undefined)', -0.619);

Request: # get_value(readout='composite Z-score', item= O=C1C[C@@](C(=O)O)(c2ccc([N+](=O)[O-])cc2)[C@@H](c2ccc(CO)cc2I)N1CC12CC3CC(CC(C3)C1)C2 )
Result: 0.235

Request: Another compound to check: CCN(CC)c1ccc(N2CC=CC34O[C@@H]5/C=C\CCCOC(=O)C5[C@H]3C(=O)N(CCCO)[C@@H]4C2=O)cc1 (some centres undefined)
Result: 0.895

Request: Another compound to check: O=C(NCCN1CCOCC1)[C@@H]1c2ccccc2C(=O)N(Cc2cc(F)cc(C(F)(F)F)c2)[C@H]1c1ccc(CO)cc1
Result: -0.543

Request: Another compound to check: CC(C)(C)OC(=O)CC[C@@]1(C(=O)NCC(O)CO)N=C(c2ccc(OCCCO)cc2)O[C@@H]1c1ccccc1 (some centres undefined)
Result: 0.595

Request: Another compound to check: O=C1C2C=CC(C(O)c3ccc(-c4ccccc4)s3)N(Nc3ccccc3F)C2C(=O)N1c1ccccc1 (centres undefined)
Result: 0.446

Request: Another compound to check: O=C1C[C@@](C(=O)O)(c2ccc([N+](=O)[O-])cc2)[C@@H](c2ccc(CO)cc2I)N1C1CCCCC1
Result: 0.477

Request: Another compound to check: CN(C)CCCC[C@@H]1NC(=O)[C@@H]2C[C@H](C(=O)NCc3ccc(F)cc3)[C@H](c3cccc(OCCO)c3)N2C1=O
Result: -0.398

Request: Another compound to check: O=C(NCc1ccccc1)[C@@H]1c2ccccc2C(=O)N(Cc2cc(F)cc(C(F)(F)F)c2)[C@H]1c1ccc(CO)cc1
Result: 0.318

Request: Another compound to check: COCC1=C([C@H](O)CCc2ccccc2)[C@H](CO)[C@@H]2C(=O)N(Cc3ccccc3)C(=O)[C@@H]2C1
Result: 0.0653

Request: Another compound to check: C=CCC(OC(C)=O)[C@@H]1[C@@H](N(Cc2ccc(-c3cccc(C(F)(F)F)c3)o2)C(=O)c2ccc(C)cc2)c2cc(OCCCO)ccc2N1C(=O)c1ccc2ccccc2n1 (some centres undefined)
Result: 0.936

Request: Another compound to check: CCCCN1CC=CC23O[C@@H]4C=CCCOC(=O)C4[C@H]2C(=O)N(CCCO)[C@@H]3C1=O (some centres undefined)
Result: -0.941

Request: Another compound to check: O=C1OCC=C[C@H]2OC34C=CCN(Cc5ccccc5)C(=O)[C@H]3N(CCCO)C(=O)[C@@H]4[C@@H]12 (some centres undefined)
Result: 2.97

Request: Another compound to check: Cc1ccc(S[C@]2(C(=O)NCCCN(C)C)CC(=O)N(C(C)C)[C@@H]2c2ccc(CO)cc2I)cc1
Result: -0.181

Request: Another compound to check: CCOC(=O)C1=CC[C@@H](c2cccc(Cl)c2)N(S(=O)(=O)c2ccc(C)cc2)[C@H]1c1ccc(C#N)cc1
Result: 0.272
